# Tested on: adipose cells of rats
# protocol_details: Evaluation of the sugar transportation activity (2-[14C(U)]-deoxy-D-glucose incorporation)
# Assay type: cell-based, Wistar rats
# condition_summary: concentration with reinforcing effect of 50% of that of insulin (100 nM) = 100%; rat adipose cells, 30 min pre-culture at 37° C., 5 min uptake
We begin with a simple list: items and their reported A: sugar transportation activity (EC50).

>>> df
                                   compound                        measured_endpoint  endpoint_result
0  CC(=O)N1[C@@H]2CCCC[C@H]2NC2=C(C(=O)NC2)[C@H]1c1ccccc1O [Compound 66]  A: sugar transportation activity (EC50)         3.7 mg/L
1  COC(=O)CCC(=O)N1[C@@H]2CCCC[C@H]2NC2=C(C(=O)NC2)[C@H]1c1ccccc1OC [Compound 17]  A: sugar transportation activity (EC50)         4.8 mg/L
2  CCOCC(=O)N1[C@@H]2CCCC[C@H]2NC2=C(C(=O)NC2)[C@H]1c1ccccc1OC(C)C [Compound 59]  A: sugar transportation activity (EC50)           2 mg/L
3  CCOCC(=O)N1[C@@H]2CCCC[C@H]2NC2=C(C(=O)NC2)[C@H]1c1ccccc1Cl [Compound 120]  A: sugar transportation activity (EC50)        10.7 mg/L

Please state recorded A: sugar transportation activity (EC50) (tested on adipose cells of rats) of CCC(=O)N1[C@@H]2CCCC[C@H]2NC2=C(C(=O)NC2)[C@H]1c1cccc(F)c1C [Compound 106] 0.6 mg/L

Same again, this time with CCC(=O)N1[C@@H]2CCCC[C@H]2N(C)C2=C(C(=O)NC2)[C@H]1c1ccccc1C [Compound 91] 0.45 mg/L

Now this one: CCOC(=O)N1[C@@H]2CCCC[C@H]2NC2=C(C(=O)NC2)[C@H]1c1ccccc1OC [Compound 38] 4.2 mg/L

====

# Tested on: adipose cells of rats
# protocol_details: Evaluation of the sugar transportation activity (2-[14C(U)]-deoxy-D-glucose incorporation)
# Assay type: cell-based, Wistar rats
# condition_summary: concentration with reinforcing effect of 50% of that of insulin (100 nM) = 100%; rat adipose cells, 30 min pre-culture at 37° C., 5 min uptake
measured_endpoint: A: sugar transportation activity (EC50) (µg/mL)
Numeric answer only, unit µg/mL assumed.

# count of solved cases: 5
>>> df
                           structure_smiles  endpoint_result
0  CCOCC(=O)N1[C@@H]2CCCC[C@H]2NC2=C(C(=O)NC2)[C@H]1c1ccccc1              2.7
1  COCC(=O)N1[C@@H]2CCCC[C@H]2NC2=C(C(=O)NC2)[C@H]1c1ccccc1C                6
2  COCC(=O)N1[C@@H]2CCCC[C@H]2NC2=C(C(=O)NC2)[C@H]1c1ccccc1Cl                5
3  Cc1ccccc1[C@@H]1C2=C(CNC2=O)N[C@@H]2CCCC[C@H]2N1C(=O)CO              2.5
4  CC(=O)N1[C@@H]2CCCC[C@H]2NC2=C(C(=O)NC2)[C@H]1c1ccccc1Br                6

Recorded A: sugar transportation activity (EC50) for CCOc1ccccc1[C@@H]1C2=C(CNC2=O)N[C@@H]2CCCC[C@H]2N1C(=O)C(F)(F)F , please? 5

Item: CCC(=O)N1[C@@H]2CCCC[C@H]2NC2=C(C(=O)NC2)[C@H]1c1ccccc1F 2

Item: CCC(=O)N1[C@@H]2CCCC[C@H]2NC2=C(C(=O)NC2)[C@H]1c1ccccc1 1.5

CSc1ccccc1[C@@H]1C2=C(CNC2=O)N[C@@H]2CCCC[C@H]2N1C(=O)CO ? 2

What about CC(=O)N1[C@@H]2CCCC[C@H]2NC2=C(C(=O)NC2)[C@H]1c1ccc(Br)cc1 ? 17

Another molecule: COc1ccc([C@@H]2C3=C(CNC3=O)N[C@@H]3CCCC[C@H]3N2C(C)=O)c(OC)c1 10

What do you have for CCC(=O)N1[C@@H]2CCCC[C@H]2NC2=C(C(=O)NC2)[C@H]1c1ccccc1Br ? 1.5

Note, next up: CCC(=O)N1[C@@H]2CCCC[C@H]2NC2=C(C(=O)NC2)[C@H]1c1ccccc1OC(C)C 2

Next record, please: CC(=O)N1[C@@H]2CCCC[C@H]2NC2=C(C(=O)NC2)[C@H]1c1ccccc1OC1CC1 0.9

Then this molecule: COc1ccccc1[C@@H]1C2=C(CNC2=O)N[C@@H]2CCCC[C@H]2N1C(C)=O 1.3

Where do the numbers come from? From patent US7807663B2.
